Target: soluble guanylate cyclase (human GUCYA3 and GUCYB3) overexpressed in CHO cells (Homo sapiens (Human), UniProt Q02153)
Sequence (Q02108 whole entry partner): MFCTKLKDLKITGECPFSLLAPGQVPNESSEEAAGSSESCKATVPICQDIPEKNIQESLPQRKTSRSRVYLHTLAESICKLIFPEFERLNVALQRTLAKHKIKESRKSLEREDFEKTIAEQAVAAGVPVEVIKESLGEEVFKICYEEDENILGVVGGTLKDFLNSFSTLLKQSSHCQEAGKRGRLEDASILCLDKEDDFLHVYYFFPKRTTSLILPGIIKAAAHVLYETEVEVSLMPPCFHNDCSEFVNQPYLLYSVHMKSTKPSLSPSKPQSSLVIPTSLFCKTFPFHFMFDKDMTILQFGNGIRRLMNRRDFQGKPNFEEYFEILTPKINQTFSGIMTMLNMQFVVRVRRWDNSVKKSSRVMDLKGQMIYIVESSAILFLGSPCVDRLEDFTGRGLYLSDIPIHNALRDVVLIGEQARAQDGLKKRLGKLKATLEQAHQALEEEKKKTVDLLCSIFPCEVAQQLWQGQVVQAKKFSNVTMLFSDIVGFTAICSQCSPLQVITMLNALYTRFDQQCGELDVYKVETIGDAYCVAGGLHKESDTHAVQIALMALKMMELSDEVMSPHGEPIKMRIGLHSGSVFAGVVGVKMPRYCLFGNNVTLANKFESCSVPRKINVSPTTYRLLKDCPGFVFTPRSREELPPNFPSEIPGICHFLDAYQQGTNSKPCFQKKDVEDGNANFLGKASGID
Sequence (Q02153 whole entry): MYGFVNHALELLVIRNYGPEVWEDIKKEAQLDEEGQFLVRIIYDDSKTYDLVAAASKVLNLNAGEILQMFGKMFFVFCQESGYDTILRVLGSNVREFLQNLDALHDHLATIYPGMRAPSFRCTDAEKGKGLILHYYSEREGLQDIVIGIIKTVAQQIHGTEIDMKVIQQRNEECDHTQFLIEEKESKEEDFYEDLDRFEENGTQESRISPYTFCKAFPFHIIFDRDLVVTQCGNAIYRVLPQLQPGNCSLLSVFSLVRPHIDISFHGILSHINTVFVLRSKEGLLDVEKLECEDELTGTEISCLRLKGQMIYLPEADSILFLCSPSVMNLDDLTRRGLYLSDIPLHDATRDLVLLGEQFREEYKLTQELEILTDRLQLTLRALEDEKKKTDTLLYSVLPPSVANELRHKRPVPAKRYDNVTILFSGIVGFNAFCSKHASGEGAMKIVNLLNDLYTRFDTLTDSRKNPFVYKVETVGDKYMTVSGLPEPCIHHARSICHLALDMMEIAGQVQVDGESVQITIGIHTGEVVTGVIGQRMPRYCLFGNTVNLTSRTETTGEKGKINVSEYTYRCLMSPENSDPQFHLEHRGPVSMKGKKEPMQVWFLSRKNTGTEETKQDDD
Experiment: CHO cellular assay (cGMP production, Cisbio cGMP HTRF kit)
Conditions: CHO GUCY clone 8E10, cGMP production, assay buffer with 1 mM IBMX and 20 uM ODQ, 1 h room temperature; minimum quantification limit 0.5 nM (listed 0.5 nM means ≤0.5 nM)
endpoint.name: pEC50
Entry type: numeric. Quantity: pEC50, the -log10 of concentration in molar units.

Worked set:
{"columns": ["compound", "endpoint.name", "observed.value"],
 "data": [
  ["CCC[C@H](O)C(=O)N1CCC(c2ccc(NC3CCc4cccc(-c5cccc(-n6ncc(C(=O)O)c6CC)n5)c43)cc2CC)CC1 (single isomer, unassigned; (-)) [Example 49b]", "pEC50", 7.70],
  ["Cc1cc(C2CCN(C(=O)C3CC3)CC2)ccc1OC1CCc2cccc(-c3cccc(-n4ncc(C(=O)O)c4C(F)(F)F)n3)c21 (single isomer, unassigned; (-))", "pEC50", 8.16],
  ["O=C(O)c1cnn(-c2cccc(-c3cccc4c3C(Oc3ccc(C5CCN(C(=O)C6CC6)CC5)cc3C(F)(F)F)CC4)n2)c1C(F)(F)F (single isomer, unassigned; enantiomer-1) [61. b). (enantiomer-1)]", "pEC50", 7.82],
  ["O=C(O)c1cnn(-c2cccc(-c3cccc4c3C(Oc3ccc5c(c3)CCN(Cc3ccccn3)C5)CC4)n2)c1C(F)(F)F (single isomer, unassigned; (-))", "pEC50", 6.94]
]}

Name the recorded pEC50 of the compound listed here: CCc1cc(NC2CCc3cccc(-c4cccc(-n5ncc(C(=O)O)c5CC)n4)c32)ccc1C1CCN(C(=O)[C@H](C)O)CC1 (single isomer, unassigned; (-)) [Example 48b]
7.96
